- ASSAY_REMARKS: solubility in aqueous solution at pH 1.0-7.0
- Type: physicochemical
- CONDITION_SET: aqueous buffer, pH 1.0-7.0, as a free acid
REPORTED_ENDPOINT: solubility

## Input Name the recorded solubility for CCC(CC)Nc1c(Nc2ccc(Cl)c(S(=O)(=O)N(C)OC)c2O)c(=O)c1=O [free acid] .
## Output < 5 µg/mL
